Origin of measurements: ChEMBL document CHEMBL6127052

tested on: Staphylococcus aureus; test: Antibacterial activity against methicillin-resistant Staphylococcus aureus clinical isolate M11 by CLSI based micro-broth dilution method; format: functional
test-readout: MIC (µg/mL)
Field: numeric (µg/mL). Do not append units.

[ask] Using the record for C=CCc1cc(-c2ccc(OCCC[N+](C)(C)CC(=O)NCCCC)c(CC=C)c2)c2oc(=S)n(Cc3ccc(OC)cc3)c2c1.[Br-] , report its MIC.
[reply] 2

[ask] Given C=CCc1cc(-c2ccc(OCCC[N+](C)(C)CC(=O)NCCCC)c(CC=C)c2)c2oc(=S)n(Cc3ccc(F)cc3)c2c1.[Br-] , state its recorded MIC.
[reply] 4

[ask] So what does the record say about MIC for C=CCc1cc(-c2ccc(OCCC[N+](C)(C)CC(=O)NCCCC)c(CC=C)c2)c2oc(=S)n(Cc3cc(Br)cc(Br)c3)c2c1.[Br-] ?
[reply] 32

[ask] # query: MIC of entry C=CCc1cc(-c2ccc(OCCC[N+](C)(C)CC(=O)NCCCC)c(CC=C)c2)c2oc(=S)n(Cc3cc(Cl)cc(Cl)c3)c2c1.[Br-]
[reply] 32

[ask] # input compound: C=CCc1ccc(O)c(-c2ccc(O)c(CC=C)c2)c1 ; wanted: its MIC
[reply] 16

[ask] Bench note: what MIC did C=CCc1cc(-c2ccc(OCCC[N+](C)(C)CC(=O)NCCCC)c(CC=C)c2)c2oc(=S)n(Cc3ccccc3F)c2c1.[Br-] show?
[reply] 4
